# TGI listing for each entry below
- Tested on: HOP-62 NSCLC
- method-summary: NCI tumour cell line growth inhibition, 48 h

compound: CCOC(=O)NC(NC(C)CC)(C(F)(F)F)C(F)(F)F (centres undefined)
study-target: HOP-62 NSCLC
TGI: > 100 µM
//
compound: NCCC(O)(P(=O)(O)O)P(=O)(O)O
study-target: HOP-62 NSCLC
TGI: > 100 µM
//
compound: Cc1cc(Cl)cc2c1NC(=O)C2(O)C(C)C(=O)c1ccc(Cl)cc1 (centres undefined)
study-target: HOP-62 NSCLC
TGI: > 100 µM
//
compound: CN(C)c1ccc(/C=C(\NC(=O)c2ccccc2)C2NC(Cc3c[nH]c4ccccc34)C(=O)O2)cc1 (centres undefined)
study-target: HOP-62 NSCLC
TGI: > 100 µM
//
compound: O=C(CCc1cccc(O)c1)NCCc1ccc(O)cc1
study-target: HOP-62 NSCLC
TGI: > 100 µM
//
compound: Oc1ccc(Cn2c(-c3ccc(O)c(O)c3)nc3ccccc32)cc1O
study-target: HOP-62 NSCLC
TGI: 38 µM
//
compound: NC1=NNC2(C(N)=N1)c1ccccc1-c1ccccc12
study-target: HOP-62 NSCLC
TGI: > 10 µM
//
compound: CCOP(=O)(OCC)/C(C#N)=C/c1cccn1CC(C)C
study-target: HOP-62 NSCLC
TGI: > 100 µM
//
compound: N/N=C1\CCCc2c1no[n+]2[O-]
study-target: HOP-62 NSCLC
TGI: > 100 µM
//
compound: CC(=O)N[C@H]1CCCC[C@@H]1OC(C)=O
study-target: HOP-62 NSCLC
TGI: > 100 µM
//
compound: c1ccc(/N=N/Nc2ccc(-c3nc4ccccc4[nH]3)cc2)nc1
study-target: HOP-62 NSCLC
TGI: 30.2 µM
//
compound: C=C1C(=O)O[C@H]2[C@H]1CC/C(COC(=O)NCc1c[nH]c3ccc(Cl)cc13)=C\CC[C@@]1(C)O[C@@H]21
study-target: HOP-62 NSCLC
TGI: 3.74 µM
//
compound: Cc1cc(Cl)ccc1N=C1NC(=O)C(CC(=O)Nc2ccc(Cl)cc2Cl)S1 (centres undefined)
study-target: HOP-62 NSCLC
TGI: > 100 µM
//
compound: COc1ccc2oc(C(=O)N3CC(CCl)c4ccc([N+](=O)[O-])cc43)cc2c1 (centres undefined)
study-target: HOP-62 NSCLC
TGI: 31.5 µM
//
compound: CC(=O)OCC1OC(n2c(N)c(C#N)c(-c3ccc(C)cc3)c(C#N)c2=S)C(OC(C)=O)C(OC(C)=O)C1OC(C)=O (centres undefined)
study-target: HOP-62 NSCLC
TGI: 47.2 µM
//
compound: COc1cc(-n2cc(-c3ccc(Cl)cc3)[nH]c2=O)cc(OC)c1OC
study-target: HOP-62 NSCLC
TGI: 78.8 µM
//
compound: COC(=O)C(Cc1ccccc1)OC(=O)C(N)CC(=O)O (centres undefined)
study-target: HOP-62 NSCLC
TGI: > 100 µM
//
compound: CC(CO)C1=CC(C#CCOCc2ccccc2)N(C(=O)Oc2ccccc2)c2ccccc21 (centres undefined)
study-target: HOP-62 NSCLC
TGI: > 100 µM
//
compound: CCOC(=O)[C@@]12CCC(C1=O)[C@](C)(O)C[C@@H]2c1ccccc1
study-target: HOP-62 NSCLC
TGI: > 100 µM

----------
- Test system: NCI-H23 lung
- method-summary: NCI tumour cell line growth inhibition, 48 h

compound: NCCCN1CCN(CC(=O)O)CCN(CCCN)CCN(CC(=O)O)CC1
TGI: > 100 µM
//
compound: CCCCCCCC/C=C\CCCCCCCC(=O)NCCN(CCN)C(=O)CCCCCCC/C=C\CCCCCCCC
TGI: > 100 µM
//
compound: CC(=O)N[C@H]1CCCC[C@@H]1OC(C)=O
TGI: > 100 µM
//
compound: CNC(=O)CCCN(C)C(=O)CCCCC(=O)N(C)C
TGI: > 100 µM
//
compound: CN(C)c1ccc(/C=C(\NC(=O)c2ccccc2)C2NC(Cc3c[nH]c4ccccc34)C(=O)O2)cc1 (stereo not drawn)
TGI: > 100 µM
//
compound: COc1nc2sc3c(c2c(=O)n1CCCSSCCCn1c(OC)nc2sc4c(c2c1=O)CCCC4)CCCC3
TGI: > 100 µM
//
compound: CCCc1nc2c(C)cc(-c3nc4ccccc4n3C)cc2n1Cc1ccc(-c2ccccc2C(=O)O)cc1
TGI: > 100 µM
//
compound: NS(=O)(=O)c1ccc(N2N=C3c4ccccc4CC3C2c2ccc(Cl)cc2)cc1 (stereo not drawn)
TGI: 34.8 µM
//
compound: CC#C[I+]c1ccccc1
TGI: 39.7 µM
//
compound: C=C1c2nc3ccccc3n2C=C(c2ccccc2)N1c1ccccc1
TGI: > 100 µM
//
compound: O=C(CCCl)NNC1=NCCN1
TGI: > 100 µM
//
compound: NS(=O)(=O)c1ccc(CCN=C=S)cc1
TGI: 7.54 µM
//
compound: CCCCN1C(=O)NC(Cc2ccccc2)C1=O (stereo not drawn)
TGI: > 100 µM
//
compound: O=C(O)CC/C(=N\Nc1nsc2ccccc12)c1ccc(Cl)cc1
TGI: 59.2 µM
//
compound: c1cncc(-c2ncc3cccnc3n2)c1
TGI: > 100 µM
//
compound: CC1=C(C(=O)NCc2ccccc2)C(c2ccccc2[N+](=O)[O-])C(C(=O)NCc2ccccc2)=C(C)N1
TGI: 25.4 µM
//
compound: ClC1=C(Cc2ccccc2)Cc2ccc3c(c21)CCC3
TGI: > 100 µM
//
compound: O=C(COc1ccccc1)NS(=O)(=O)c1ccccc1
TGI: > 100 µM

----------
# TGI listing for each entry below
- Tested on: HL-60(TB) leukemia
- method-summary: NCI tumour cell line growth inhibition, 48 h

compound: Nc1ncnc2c1ncn2C1OC(CO)=CC1O (stereo not given)
qualifier-sign: >
TGI / µM: 37.5

compound: COc1cccc(N2C(=O)CSC2c2cc(OC)c(OC)c(OC)c2)c1 (stereo not given)
qualifier-sign: =
TGI / µM: 98

compound: CCOP(=O)(C=C=C(C)C)OCC
qualifier-sign: >
TGI / µM: 100

compound: COc1ccc(O)c(C=NCCCN=Cc2cc(OC)ccc2O)c1
qualifier-sign: =
TGI / µM: 28.5

compound: Nc1c(-c2ccc(Cl)cc2Cl)[n+]([O-])c2ccccc2[n+]1[O-]
qualifier-sign: >
TGI / µM: 100

compound: O=C(Cc1ccc(Cl)c(Cl)c1)N(CCc1ccc(Cl)c(Cl)c1)CCN1CCCC1
qualifier-sign: =
TGI / µM: 3.35

compound: CCOC(=O)c1c(-c2ccc(OC)cc2)c(C#N)c(=S)n(C2OC(CO)C(O)C(O)C2O)c1-c1ccccc1 (stereo not given)
qualifier-sign: >
TGI / µM: 100

compound: CCCCCCCCCCCCCCCCCCOCC(CO[P+](=O)O)OCCCCCCCCCCCCCCCCCC (stereo not given)
qualifier-sign: >
TGI / µM: 50

compound: COc1cc([N+](=O)[O-])ccc1NC1=CC(=O)CCC1
qualifier-sign: >
TGI / µM: 100

compound: O=[N+]([O-])c1cc(-[n+]2cc([O-])on2)ccc1F
qualifier-sign: =
TGI / µM: 49

----------
- Test system: BT-549 breast
- method-summary: NCI tumour cell line growth inhibition, 48 h
Where a SMILES comes first, the peptide text is derived from it. [ ]: non-standard residue; d: D form. β3hI = CC[CH](C)[CH](N)CC(=O)O
# TGI listing for each entry below

compound: Cc1n[nH]c(=O)n1/N=C/c1c[nH]c2ccccc12
TGI: > 100 µM
--
compound: C[C@@]12CCC(=O)C=C1CC[C@H]1C2=CC[C@]2(C)C1CC[C@@]2(C)O (stereo partly specified)
TGI: > 100 µM
--
compound: O=C(NCCO)Nc1c(C(F)(F)F)cc(-c2ccccc2)[nH]c1=O
TGI: > 100 µM
--
compound: CC(=O)N[C@H]1CCCC[C@@H]1OC(C)=O
TGI: > 100 µM
--
compound: CCCc1nc2c(C)cc(-c3nc4ccccc4n3C)cc2n1Cc1ccc(-c2ccccc2C(=O)O)cc1
TGI: > 100 µM
--
compound: CN(C)CCCc1c[nH]c2ccccc12
TGI: > 100 µM
--
compound: CC(C)(C)C(=O)C(C(c1ccccc1)N1CCOCC1)N1CCOCC1 (stereo unspecified)
TGI: > 100 µM
--
compound: COC(=O)C(Cc1ccccc1)OC(=O)C(N)CC(=O)O (stereo unspecified)
TGI: > 100 µM
--
compound: COc1cc(C(=O)c2cc3c(cc2C)OCO3)cc(OC)c1OC
TGI: > 100 µM
--
compound: CN(C)c1ccc(/C=C(\NC(=O)c2ccccc2)C2NC(Cc3c[nH]c4ccccc34)C(=O)O2)cc1 (stereo unspecified)
TGI: > 45.2 µM
--
compound: CCC(C)C(CC(=O)N1CCCC1C(=O)NC(C(=O)NC(C(=O)NCC(=O)NC(CC(N)=O)C(=O)NC(C(=O)NC(C(=O)NC(CCCCN)C(N)=O)C(C)CC)C(C)CC)C(C)C)C(C)CC)NC(=O)C(N)C(C)CC (stereo not drawn) (H-I[β3hI]PIVGNIIK-NH2; configuration not given here)
TGI: > 50 µM
